viability, T/C listing for selected compounds.
tested on: 463943-066-T-J2-PDC complex spheroid growth; assay: Anticancer human tumor 463943-066-T-J2-PDC patient-derived colon adenocarcinoma cell line growth inhibition [Asc]; conditions: second compound 0.949 µM; first compound 0.00316 µM; stronger effect = lower value;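 also: compound exposure lasted 7 days; 100% = DMSO vehicle control wells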
endpoint: viability, T/C

[[record]]
compound = "CNC(C)C(=O)NC1CN(S(=O)(=O)c2cccc(S(=O)(=O)N3CCC4CCC(C(=O)NC(c5ccccc5)c5ccccc5)N4C(=O)C(NC(=O)C(C)NC)C3)c2)CCC2CCC(C(=O)NC(c3ccccc3)c3ccccc3)N2C1=O (stereo unspecified) + CCN1C(C(=O)NC23CCC(C(=O)O)(CC2)CC3)C(c2cccc(Cl)c2F)C2(C(=O)Nc3cc(Cl)ccc32)C12CCCCC2"
endpoint = "viability, T/C"
result = "73.1%"

[[record]]
compound = "COc1c(OCCCN2CCOCC2)ccc2c3n(c(=NC(=O)c4cnc(N)nc4)nc12)CCN3 + CCN1C(C(=O)NC23CCC(C(=O)O)(CC2)CC3)C(c2cccc(Cl)c2F)C2(C(=O)Nc3cc(Cl)ccc32)C12CCCCC2"
endpoint = "viability, T/C"
result = "68.5%"

[[record]]
compound = "NC1CCC(NC2CC2c2ccccc2)CC1 (stereo unspecified) + CCN1C(C(=O)NC23CCC(C(=O)O)(CC2)CC3)C(c2cccc(Cl)c2F)C2(C(=O)Nc3cc(Cl)ccc32)C12CCCCC2"
endpoint = "viability, T/C"
result = "66.7%"

[[record]]
compound = "O=C(c1ccc(F)c(F)c1Nc1ccc(I)cc1F)N1CC(O)([C@@H]2CCCCN2)C1 + CCN1C(C(=O)NC23CCC(C(=O)O)(CC2)CC3)C(c2cccc(Cl)c2F)C2(C(=O)Nc3cc(Cl)ccc32)C12CCCCC2"
endpoint = "viability, T/C"
result = "67.8%"

[[record]]
compound = "Cn1ncnc1[C@H]1c2n[nH]c(=O)c3cc(F)cc(c23)N[C@@H]1c1ccc(F)cc1 + CCN1C(C(=O)NC23CCC(C(=O)O)(CC2)CC3)C(c2cccc(Cl)c2F)C2(C(=O)Nc3cc(Cl)ccc32)C12CCCCC2"
endpoint = "viability, T/C"
result = "72.5%"

[[record]]
compound = "CCN1CCN(Cc2ccc(Nc3ncc(F)c(-c4cc(F)c5nc(C)n(C(C)C)c5c4)n3)nc2)CC1 + CCN1C(C(=O)NC23CCC(C(=O)O)(CC2)CC3)C(c2cccc(Cl)c2F)C2(C(=O)Nc3cc(Cl)ccc32)C12CCCCC2"
endpoint = "viability, T/C"
result = "74.5%"

